Data provenance is patent US10028992B2.

Test system: α7 integrin promoter
test_description: muscle cell-based assay: α7βgal+/− myoblasts/myotubes, LacZ reporter, β-galactosidase cleavage of FDG
Set-up: species or system mouse; scale not given here
setup_conditions: Myotubes, 1 uM
Description: An α7 integrin null mouse was produced in which exon 1 of the gene encoding the α7 integrin was replaced by the LacZ reporter. […] A primary myoblast cell line (designated α7βgal^+/−) isolated from 10 day old α7^+/− pups were analyzed for the ability of β-galactosidase to report α7 integrin expression. α7βgal^+/− myoblasts were differentiated and subjected to X-gal staining and western analysis (FIGS. 1A and 1B). […]
Strictly below -0.09 in Results in α7+/− β-galactosidase assay: yes (1). Otherwise: no (0).

Completed entries (count: 3):
compound: O=C1Nc2ccccc2/C1=C1/Nc2ccccc2/C1=N\O [drawing 518]
class_assignment: no (0)
//
compound: Cc1cc(C)c(/C=C2\C(=O)Nc3ccccc32)[nH]1 [drawing 513]
class_assignment: yes (1)
//
compound: O=C1Nc2ccccc2/C1=C1\Nc2ccccc2C1=O [drawing 508]
class_assignment: no (0)

# next compound below
Please let me know if Cc1[nH]c(/C=C2\C(=O)Nc3ccccc32)c(C)c1CCC(=O)O [drawing 509] shows Results in α7+/− β-galactosidase assay below -0.09. no (0)

---

System: α7 integrin promoter
test_description: muscle cell-based assay: α7βgal+/− myoblasts/myotubes, LacZ reporter, β-galactosidase cleavage of FDG
Set-up: species or system mouse
setup_conditions: curve class number, key not given
Catalogue of Fit Curve Class readings, one per entry.

compound: CC(C)N(CCO)C(=O)CCc1nnc(CCCc2ccccc2)o1 [Compound 199]
Fit Curve Class: 2.2

Reported Fit Curve Class, compound Cc1nc2c(cnn2-c2ccccc2)c(=O)n1/N=C/c1ccccc1 [Compound 171] : ____ 2.2

---

Measured Results in a α7+/− β-galactosidase assay, Myotubes, 5 uM by item
Tested on: α7 integrin promoter
test_description: muscle cell-based assay: α7βgal+/− myoblasts/myotubes, LacZ reporter, β-galactosidase cleavage of FDG
Parameters: species or system mouse
setup_conditions: Myotubes; compound at 5 uM

compound: Cc1ccsc1-c1nnc(S)n1C1CCCCC1 [drawing 413]
measured_result: 0.1567

compound: Fc1ccc(-c2ccnc3nc(N4CCN(c5ccccc5)CC4)nn23)cc1 [drawing 441]
measured_result: 0.08445

compound: COc1ccccc1C(=O)OCc1ccc2sc(C)nc2c1 [drawing 378]
measured_result: 0.05342

What value of measured Results in a α7+/− β-galactosidase assay, Myotubes, 5 uM is listed for COC(=O)c1cc(S(=O)(=O)NCC2CCN(Cc3ccc(Cl)cc3)CC2)cn1C [drawing 464] ? −0.09401

// same read-out, input: COC(=O)Cn1c(=O)c2c(nc3n2CC(C)CN3Cc2ccccc2)n(C)c1=O (stereo not drawn) [drawing 415] −0.1372

Lookup O=C(N/N=C/c1c[nH]c2ccccc12)c1cc(Cl)ccc1O [drawing 409] 0.2441

Okay, and N#Cc1ccc(Sc2nc3ccccc3[nH]2)cc1C#N [drawing 376] ? 0.01154

Now try Cc1ccc(NS(=O)(=O)c2ccc(-c3ccc(O)nn3)o2)c(C)c1 [drawing 477] . −0.3008

Please give the result for CN(CCC1CCCCO1)C(=O)CCc1nnc(CCCCc2ccccc2)o1 (stereo not drawn) [drawing 407] too. −0.2337
